Origin of measurements: paper PMC9262797

# Assayed Target: MMAB (recombinant human MMAB, amino acids 56–250) (Homo sapiens, UniProt Q96EY8)
# Construct: N-terminally truncated residues 56-250, mitochondrial leader omitted; homotrimer, native mass 78 kDa by SEC
# Sequence (Q96EY8 56-250): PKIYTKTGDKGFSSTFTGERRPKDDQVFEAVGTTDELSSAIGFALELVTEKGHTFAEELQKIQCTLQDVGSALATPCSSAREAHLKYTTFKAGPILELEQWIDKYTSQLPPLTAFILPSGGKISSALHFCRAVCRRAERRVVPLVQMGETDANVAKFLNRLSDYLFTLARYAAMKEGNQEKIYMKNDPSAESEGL
# Assay Explanation: isothermal titration calorimetry
# Assay type: binding
Measurement Kind: Kd (µM)
Expressed in µM, but write only the number.

Query Nc1ncnc2c1ncn2[C@@H]1O[C@H](COP(=O)(O)OP(=O)(O)OP(=O)(O)O)[C@@H](O)[C@H]1O [ATP] yields Kd of 14.2
